Assignment: determine reported z-score of prototroph abundance for the given compounds.
test system: Saccharomyces cerevisiae BY4741 SeMeCo community; experiment: z-score of prototroph abundance vs DMSO median; higher = larger share of this subpopulation than in DMSO controls; conditions: 10 µM; 24 h; SM minimal medium; subpopulation (auxotrophy): Prototroph
Counter-ions that a name gives are not always drawn.
Could you keep your reply to the number by itself?

stdin: Assign z-score of prototroph abundance to the following record: CC(C)NC(=N)NC(=N)Nc1ccc(Cl)cc1 [Proguanil]
stdout: 0

stdin: Assign z-score of prototroph abundance to the following record: CCC(C)(C)c1ccc(CC(C)CN2C[C@@H](C)O[C@@H](C)C2)cc1 (some centres not stated) [Amorolfine HCl]
stdout: -9.52

stdin: Assign z-score of prototroph abundance to the following record: Oc1c(Br)cc(Br)c2cccnc12 [Broxyquinoline]
stdout: -16.8

stdin: Assign z-score of prototroph abundance to the following record: NCCc1ccc(O)c(O)c1 [Dopamine HCl]
stdout: 1.09

stdin: Assign z-score of prototroph abundance to the following record: CO/N=C(/C(=O)N[C@@H]1C(=O)N2C(C(=O)OCOC(=O)C(C)(C)C)=C(C)CS[C@H]12)c1csc(N)n1 [Cefetamet pivoxil hydrochloride]
stdout: -1.5

stdin: Assign z-score of prototroph abundance to the following record: CCCCCCCCCCCCCCCCOP(=O)([O-])OCC[N+](C)(C)C [Miltefosine]
stdout: -22.6

stdin: Assign z-score of prototroph abundance to the following record: NC(=O)N/N=C/c1ccc([N+](=O)[O-])o1 [Nitrofural]
stdout: -0.16

----------
test system: Saccharomyces cerevisiae BY4741 SeMeCo community; assay: z-score of subpopulation abundance vs DMSO median, subpopulation auxotrophic for HU; higher = larger share of this subpopulation than in DMSO controls; conditions: 10 µM; 24 h; SM minimal medium; subpopulation (auxotrophy): HU
Counter-ions that a name gives are not always drawn.
ENDPOINT: z-score of subpopulation abundance

stdin: Assign z-score of subpopulation abundance to the following record: CCCCNc1ccc(C(=O)OCCN(C)C)cc1 [Tetracaine HCl]
stdout: 0.08

stdin: Assign z-score of subpopulation abundance to the following record: CC[C@H](Nc1ncnc2[nH]cnc12)c1nc2cccc(F)c2c(=O)n1-c1ccccc1
stdout: 0.68

stdin: Assign z-score of subpopulation abundance to the following record: O=C1[C@@H]2[C@H]3CC[C@H](C3)[C@@H]2C(=O)N1C[C@@H]1CCCC[C@H]1CN1CCN(c2nsc3ccccc23)CC1
stdout: -0.35

----------
tested on: Saccharomyces cerevisiae BY4741 SeMeCo community; assay: z-score of subpopulation abundance vs DMSO median, subpopulation auxotrophic for UM; higher = larger share of this subpopulation than in DMSO controls; conditions: 10 µM; 24 h; SM minimal medium; subpopulation (auxotrophy): UM
Structures can show the parent of a compound that is named as a salt.
Assignment: determine reported z-score of subpopulation abundance for the given compounds.

stdin: Assign z-score of subpopulation abundance to the following record: CCn1cc(C(=O)O)c(=O)c2cc(F)c(N3CCNC(C)C3)c(F)c21 (stereo not given) [Lomefloxacin HCl]
stdout: 0.51

stdin: Assign z-score of subpopulation abundance to the following record: CCC1(C)CC(=O)NC1=O (stereo not given) [Ethosuximide]
stdout: -0.4

stdin: Assign z-score of subpopulation abundance to the following record: CN(C)[C@@H]1C(=O)C(C(N)=O)=C(O)[C@@]2(O)C(=O)C3=C(O)c4c(O)ccc(Cl)c4[C@@H](O)[C@H]3C[C@@H]12 [Demeclocycline HCl]
stdout: -0.64

stdin: Assign z-score of subpopulation abundance to the following record: CC(=O)N[C@H]1[C@H]([C@H](O)[C@H](O)CO)OC(C(=O)O)=C[C@@H]1NC(=N)N [Zanamivir]
stdout: -0.2

stdin: Assign z-score of subpopulation abundance to the following record: N[C@@H](CCC(=O)O)C(=O)O [(S)-Glutamic acid]
stdout: -0.63

----------
Assignment: determine reported z-score of subpopulation abundance for the given compounds.
test system: Saccharomyces cerevisiae BY4741 SeMeCo community; test: z-score of subpopulation abundance vs DMSO median, subpopulation auxotrophic for UM; higher = larger share of this subpopulation than in DMSO controls; conditions: 10 µM; 24 h; SM minimal medium; subpopulation (auxotrophy): UM
Structures can show the parent of a compound that is named as a salt.

stdin: Assign z-score of subpopulation abundance to the following record: Clc1ccc(CSC(Cn2ccnc2)c2ccc(Cl)cc2Cl)cc1 (centres undefined) [Sulconazole Nitrate]
stdout: 5.19

stdin: Assign z-score of subpopulation abundance to the following record: O=C(O)C1=C(CSc2nnnn2CS(=O)(=O)O)CS[C@@H]2[C@H](NC(=O)[C@H](O)c3ccccc3)C(=O)N12 [Cefonicid sodium]
stdout: 0.3

stdin: Assign z-score of subpopulation abundance to the following record: CCCCc1oc2ccc(NS(C)(=O)=O)cc2c1C(=O)c1ccc(OCCCN(CCCC)CCCC)cc1 [Dronedarone HCl]
stdout: -0.63

stdin: Assign z-score of subpopulation abundance to the following record: C[C@@H]1CC(=O)NN=C1c1ccc(NN=C(C#N)C#N)cc1
stdout: 0.05

----------
test system: Saccharomyces cerevisiae BY4741 SeMeCo community; assay: z-score of subpopulation abundance vs DMSO median, subpopulation auxotrophic for HLM; higher = larger share of this subpopulation than in DMSO controls; details: 10 µM; 24 h; SM minimal medium; subpopulation (auxotrophy): HLM
Where a name gives a salt, the structure may show the parent alone.
Assignment: determine reported z-score of subpopulation abundance for the given compounds.
Could you keep your reply to the number by itself?

stdin: Assign z-score of subpopulation abundance to the following record: CC[C@H]1OC(=O)[C@H](C)[C@@H](O[C@H]2C[C@@](C)(OC)[C@@H](O)[C@H](C)O2)[C@H](C)[C@@H](O[C@@H]2O[C@H](C)C[C@H](N(C)C)[C@H]2O)[C@](C)(O)C[C@@H](C)CN(C)[C@H](C)[C@@H](O)[C@]1(C)O [Azithromycin Dihydrate]
stdout: 0.07

stdin: Assign z-score of subpopulation abundance to the following record: CC1=C(C(=O)O)N2C(=O)[C@@H](NC(=O)[C@H](N)c3ccccc3)[C@H]2SC1
stdout: -0.53

stdin: Assign z-score of subpopulation abundance to the following record: CCOc1cc(N)c([N+](=O)[O-])cc1C(=O)NC1CCN(CC2CC=CCC2)CC1 (centres undefined) [Cinitapride Hydrogen Tartrate]
stdout: -0.29

stdin: Assign z-score of subpopulation abundance to the following record: CN(Cc1cnc2nc(N)nc(N)c2n1)c1ccc(C(=O)N[C@@H](CCC(=O)O)C(=O)O)cc1 [Methotrexate disodium]
stdout: 14.3

----------
system: Saccharomyces cerevisiae BY4741 SeMeCo community; test: z-score of subpopulation abundance vs DMSO median, subpopulation auxotrophic for UM; higher = larger share of this subpopulation than in DMSO controls; settings: 10 µM; 24 h; SM minimal medium; subpopulation (auxotrophy): UM
Counter-ions that a name gives are not always drawn.
Assignment: determine reported z-score of subpopulation abundance for the given compounds.
Could you keep your reply to the number by itself?

stdin: Give Saccharomyces cerevisiae BY4741 SeMeCo community z-score of subpopulation abundance for the following compound: CC[C@H](C)C(=O)O[C@H]1C[C@H](O)C=C2C=C[C@H](C)[C@H](CC[C@@H](O)C[C@@H](O)CC(=O)O)[C@H]21 [Pravastatin sodium]
stdout: 0.47

stdin: Give Saccharomyces cerevisiae BY4741 SeMeCo community z-score of subpopulation abundance for the following compound: O=C(c1ccc(OCCN2CCCCC2)cc1)c1c(-c2ccc(O)cc2)sc2cc(O)ccc12 [Raloxifene]
stdout: -1.32

stdin: Give Saccharomyces cerevisiae BY4741 SeMeCo community z-score of subpopulation abundance for the following compound: C[N+]1(C)CCC(OC(=O)C(O)(c2ccccc2)C2CCCC2)C1 (stereo unspecified) [Glycopyrrolate]
stdout: 1.58

stdin: Give Saccharomyces cerevisiae BY4741 SeMeCo community z-score of subpopulation abundance for the following compound: CC(C)COCC(CN(Cc1ccccc1)c1ccccc1)N1CCCC1 (stereo unspecified) [Bepridil hydrochloride]
stdout: 0.18

stdin: Give Saccharomyces cerevisiae BY4741 SeMeCo community z-score of subpopulation abundance for the following compound: CSc1nc2cc(Cl)c(Oc3cccc(Cl)c3Cl)cc2[nH]1
stdout: -5.17

stdin: Give Saccharomyces cerevisiae BY4741 SeMeCo community z-score of subpopulation abundance for the following compound: C#C[C@]1(O)CC[C@H]2[C@@H]3CCc4cc(OC5CCCC5)ccc4[C@H]3CC[C@@]21C
stdout: -0.33

stdin: Give Saccharomyces cerevisiae BY4741 SeMeCo community z-score of subpopulation abundance for the following compound: CO[C@@]1(NC(=O)Cc2cccs2)C(=O)N2C(C(=O)O)=C(COC(N)=O)CS[C@@H]21 [Cefoxitin sodium]
stdout: -0.63

stdin: Give Saccharomyces cerevisiae BY4741 SeMeCo community z-score of subpopulation abundance for the following compound: CCC(C)n1ncn(-c2ccc(N3CCN(c4ccc(OCC5COC(Cn6cncn6)(c6ccc(Cl)cc6Cl)O5)cc4)CC3)cc2)c1=O (stereo unspecified)
stdout: 11.4

stdin: Give Saccharomyces cerevisiae BY4741 SeMeCo community z-score of subpopulation abundance for the following compound: CCN(CC)CCOC(=O)c1ccc(N)cc1
stdout: 0.14

stdin: Give Saccharomyces cerevisiae BY4741 SeMeCo community z-score of subpopulation abundance for the following compound: CCCCCCCCCC(=O)NC1C(Oc2c3cc4cc2Oc2ccc(cc2Cl)C(OC2OC(CO)C(O)C(O)C2NC(C)=O)C2NC(=O)C(NC(=O)C4NC(=O)C4NC(=O)C(Cc5ccc(c(Cl)c5)O3)NC(=O)C(N)c3ccc(O)c(c3)Oc3cc(O)cc4c3)c3ccc(O)c(c3)-c3c(OC4OC(CO)C(O)C(O)C4O)cc(O)cc3C(C(=O)O)NC2=O)OC(CO)C(O)C1O (stereo unspecified)
stdout: 0.78

stdin: Give Saccharomyces cerevisiae BY4741 SeMeCo community z-score of subpopulation abundance for the following compound: CC(=O)C1C(=O)C=C(C)OC1=O (stereo unspecified) [Sodium dehydroacetate]
stdout: 0.54

stdin: Give Saccharomyces cerevisiae BY4741 SeMeCo community z-score of subpopulation abundance for the following compound: O=C1[C@H]2CCCC[C@H]2C(=O)N1CCCCN1CCN(c2nsc3ccccc23)CC1 [Perospirone hydrochloride]
stdout: -0.02

stdin: Give Saccharomyces cerevisiae BY4741 SeMeCo community z-score of subpopulation abundance for the following compound: CCCCOc1cc(C(=O)NCCN(CC)CC)c2ccccc2n1 [Dibucaine HCl]
stdout: 0.1

stdin: Give Saccharomyces cerevisiae BY4741 SeMeCo community z-score of subpopulation abundance for the following compound: COC(=O)C1=C(C)NC(C)=C(C(=O)OCC(C)C)C1c1ccccc1[N+](=O)[O-] (stereo unspecified)
stdout: 0.03

stdin: Give Saccharomyces cerevisiae BY4741 SeMeCo community z-score of subpopulation abundance for the following compound: CCCOc1ccc(C(=O)OCCN(CC)CC)cc1N [Proparacaine HCl]
stdout: -0.06

stdin: Give Saccharomyces cerevisiae BY4741 SeMeCo community z-score of subpopulation abundance for the following compound: C#C[C@]1(OC(C)=O)CC[C@H]2[C@@H]3CCC4=C[C@@H](OC(C)=O)CC[C@@H]4[C@H]3CC[C@@]21C [Ethynodiol diacetate]
stdout: -0.32

stdin: Give Saccharomyces cerevisiae BY4741 SeMeCo community z-score of subpopulation abundance for the following compound: CC(=O)[O-].[K+] [Potassium acetate]
stdout: -0.51

stdin: Give Saccharomyces cerevisiae BY4741 SeMeCo community z-score of subpopulation abundance for the following compound: Clc1ccc(C(Cn2ccnc2)OCc2c(Cl)cccc2Cl)c(Cl)c1 (stereo unspecified) [Isoconazole nitrate]
stdout: 5.43

stdin: Give Saccharomyces cerevisiae BY4741 SeMeCo community z-score of subpopulation abundance for the following compound: CC/C(=C(/CC)c1ccc(O)cc1)c1ccc(O)cc1
stdout: -1.59

stdin: Give Saccharomyces cerevisiae BY4741 SeMeCo community z-score of subpopulation abundance for the following compound: CC(=O)N1CCN(c2ccc(OCC3COC(Cn4ccnc4)(c4ccc(Cl)cc4Cl)O3)cc2)CC1 (stereo unspecified)
stdout: -0.23

stdin: Give Saccharomyces cerevisiae BY4741 SeMeCo community z-score of subpopulation abundance for the following compound: NCCNc1ccc(NCCN)c2c1C(=O)c1ccncc1C2=O [Pixantrone Maleate]
stdout: -7.68

Reference source: the supplement of paper PMC8975748
